Measured GI50 of individual entries
Test system: NCI-H226
Test: NCI tumour cell line growth inhibition, 48 h
Activity calls are given as the source filed them. Rule as the data show it: active = GI50 up to about 1.1 µM and inactive = higher.

>  <compound>
O=[N+]([O-])c1ccccc1[S+]([O-])c1ccccc1 (stereo unspecified)

>  <GI50>
49.9 µM (inactive)

$$$$
>  <compound>
O=C1C=CC(=O)C2C1Cc1ccccc1C2c1ccccc1 (stereo unspecified)

>  <GI50>
65.5 µM (inactive)

$$$$
>  <compound>
Cc1cc(NC(=S)Nc2ccccc2)c(NC(=S)Nc2ccccc2)cc1C

>  <GI50>
47.6 µM (inactive)

$$$$
>  <compound>
O=C(/C=C/c1ccc(O)c(O)c1)c1ccc(O)cc1O [BUTEIN]

>  <GI50>
17.3 µM (inactive)

$$$$
>  <compound>
COc1ccc(C(N)=O)cc1/N=N/N(C)C

>  <GI50>
> 100 µM (inactive)

$$$$

Which GI50 value is on record for O=[N+]([O-])c1ccc(-c2csc3nc(-c4ccccc4)nn23)cc1 ?
> 100 µM (inactive)

For the compound shown here, N#CC(C#N)=Cc1ccc(C=C2SC3=C(SCCS3)S2)s1 , give the reported GI50.
2.27 µM (inactive)

Any idea what its GI50 is? The compound is C/C=C(\C)C(=O)OC1CC(OC(C)=O)C2(C(=O)OC)COC3C2C1(C)C1C2(C(=O)OC)OCC1(C3O)C1(O)C3CC(C4(O)C=COC4O3)C1(C)O2 (stereo unspecified)
> 100 µM (inactive)

====

Tested on: K562
Test: NCI tumour cell line growth inhibition, 48 h
Active and inactive are the calls of the source. No stated cut-off is given here; in the data, active = GI50 up to about 1.1 µM and inactive = higher.
Item-by-item account of GI50

>  <compound>
CC1=C(C(=O)Nc2ccccc2C)C(c2ccc(C3C(C(=O)Nc4ccccc4C)=CNC=C3C(=O)Nc3ccccc3C)cc2)C(C(=O)Nc2ccccc2C)=C(C)N1

>  <GI50>
9.27 µM (inactive)

$$$$
>  <compound>
CCCCCCCCCCCCCCCCCCOCC(O)COP(=O)(O)OCC1OC(n2ccc(N)nc2=O)C(O)C1O (stereo not drawn)

>  <GI50>
28.2 µM (inactive)

$$$$
>  <compound>
CCN(CC)CCCCC1CCN(CC(=O)N2CC(C)C(=O)Nc3ccccc32)CC1 (stereo not drawn)

>  <GI50>
> 100 µM (inactive)

$$$$
>  <compound>
COC(=O)c1ccc(CCC2=CC(=O)C=CC2=O)cc1

>  <GI50>
2.37 µM (inactive)

$$$$
>  <compound>
CSC1=C(C#N)C(=S)N=C(N)C1C(=O)Nc1ccc(C)cc1 (stereo not drawn)

>  <GI50>
> 100 µM (inactive)

$$$$
>  <compound>
CN(C)Cc1cc(/N=N/c2cccc(Cl)c2)ccc1O

>  <GI50>
3.27 µM (inactive)

$$$$
>  <compound>
NCCCCCCNCc1cccc2ccccc12

>  <GI50>
19.8 µM (inactive)

$$$$
>  <compound>
O=C1CCC(=O)C1=NNc1ccccc1

>  <GI50>
> 100 µM (inactive)

$$$$
>  <compound>
Oc1cc(-c2ccc3ccccc3c2)nc2ncc(Cl)cc12

>  <GI50>
3.23 µM (inactive)

$$$$
>  <compound>
COc1cc(C2c3cc4c(cc3[C@@H](Nc3ccc(N)cc3)C3COC(=O)[C@H]23)OCO4)cc(OC)c1O (stereo partly drawn)

>  <GI50>
3.13 µM (inactive)

$$$$

Using the record for NS(=O)(=O)c1ccc(N2C(=O)C(=O)N(c3ccccc3)C2=S)cc1 , report its GI50.
> 100 µM (inactive)

Fill blank: measured GI50 of the compound CCc1cccc(C)c1NC(=O)NS(=O)(=O)c1ccc(C)cc1 is ____.
> 100 µM (inactive)

Request the reported GI50 associated with Cc1c(C)c2c(c(N)c1C#N)C(=O)N(NC(=O)c1ccccc1)C2=O
> 100 µM (inactive)

GET /values?readout=GI50&item= Cc1ccc(C2SC(=N)Nc3c2c(C)nn3C(=O)c2ccccc2O)cc1 (stereo not drawn)
4.35 µM (inactive)

Which GI50 is reported for this compound? CC(=O)Nc1ccc(NC(=O)c2c(Cl)c(Cl)c(Cl)c(Cl)c2-c2nc3ccccc3[nH]2)cc1
27.5 µM (inactive)

Given CN(C)S(=O)(=O)n1ccnc1 , state its recorded GI50.
> 100 µM (inactive)

What value of GI50 has been recorded for this entry: [N-]=[N+]=NC1OC(=O)C(Cl)=C1N=P(c1ccccc1)(c1ccccc1)c1ccccc1 (stereo not drawn)
3.59 µM (inactive)

Quick one: GI50 for Cc1ccc(Nc2nc3ccccc3c(=O)n2N)cc1 ?
> 100 µM (inactive)
